B1: CDC25A (parent)
chain: QLIDPDENKENEAFEFKKPVRPVS

variants of: B1; experiment: protein stability index of a GFP-peptide fusion (GPS, HEK-293T) (PSI 1-6); higher = more stable; settings: c terminus: a fixed tail appended;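 further: lentivirally expressed fusions sorted by FACS into six bins by GFP to DsRed ratio, PSI derived from sequencing read proportions per bin multiplied by bin number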
protein stability index values, listed per item
API note: the answer field is a bare number with no unit suffix.

Use the examples below as a reference point.
> print(dat)
   change            quantity.name  endpoint.value
1    F16C  protein stability index             4.6
2     N8P  protein stability index            4.28
3     L2T  protein stability index            4.31
4     E7N  protein stability index            3.42

The recorded protein stability index for entry R21T equals 4.04

The recorded protein stability index for entry N8T equals 4.61

The recorded protein stability index for entry P5G equals 3.9

The recorded protein stability index for entry D6M equals 4.14

The recorded protein stability index for entry P5T equals 3.61
